molecular target: ALK enzyme (Homo sapiens); assay: Anaplastic lymphoma kinase (ALK) inhibitory activity, HTRF kinase assay; format: biochemical; details: HTRF, read-out: ALK
Sequence (Q9UM73 19-1620): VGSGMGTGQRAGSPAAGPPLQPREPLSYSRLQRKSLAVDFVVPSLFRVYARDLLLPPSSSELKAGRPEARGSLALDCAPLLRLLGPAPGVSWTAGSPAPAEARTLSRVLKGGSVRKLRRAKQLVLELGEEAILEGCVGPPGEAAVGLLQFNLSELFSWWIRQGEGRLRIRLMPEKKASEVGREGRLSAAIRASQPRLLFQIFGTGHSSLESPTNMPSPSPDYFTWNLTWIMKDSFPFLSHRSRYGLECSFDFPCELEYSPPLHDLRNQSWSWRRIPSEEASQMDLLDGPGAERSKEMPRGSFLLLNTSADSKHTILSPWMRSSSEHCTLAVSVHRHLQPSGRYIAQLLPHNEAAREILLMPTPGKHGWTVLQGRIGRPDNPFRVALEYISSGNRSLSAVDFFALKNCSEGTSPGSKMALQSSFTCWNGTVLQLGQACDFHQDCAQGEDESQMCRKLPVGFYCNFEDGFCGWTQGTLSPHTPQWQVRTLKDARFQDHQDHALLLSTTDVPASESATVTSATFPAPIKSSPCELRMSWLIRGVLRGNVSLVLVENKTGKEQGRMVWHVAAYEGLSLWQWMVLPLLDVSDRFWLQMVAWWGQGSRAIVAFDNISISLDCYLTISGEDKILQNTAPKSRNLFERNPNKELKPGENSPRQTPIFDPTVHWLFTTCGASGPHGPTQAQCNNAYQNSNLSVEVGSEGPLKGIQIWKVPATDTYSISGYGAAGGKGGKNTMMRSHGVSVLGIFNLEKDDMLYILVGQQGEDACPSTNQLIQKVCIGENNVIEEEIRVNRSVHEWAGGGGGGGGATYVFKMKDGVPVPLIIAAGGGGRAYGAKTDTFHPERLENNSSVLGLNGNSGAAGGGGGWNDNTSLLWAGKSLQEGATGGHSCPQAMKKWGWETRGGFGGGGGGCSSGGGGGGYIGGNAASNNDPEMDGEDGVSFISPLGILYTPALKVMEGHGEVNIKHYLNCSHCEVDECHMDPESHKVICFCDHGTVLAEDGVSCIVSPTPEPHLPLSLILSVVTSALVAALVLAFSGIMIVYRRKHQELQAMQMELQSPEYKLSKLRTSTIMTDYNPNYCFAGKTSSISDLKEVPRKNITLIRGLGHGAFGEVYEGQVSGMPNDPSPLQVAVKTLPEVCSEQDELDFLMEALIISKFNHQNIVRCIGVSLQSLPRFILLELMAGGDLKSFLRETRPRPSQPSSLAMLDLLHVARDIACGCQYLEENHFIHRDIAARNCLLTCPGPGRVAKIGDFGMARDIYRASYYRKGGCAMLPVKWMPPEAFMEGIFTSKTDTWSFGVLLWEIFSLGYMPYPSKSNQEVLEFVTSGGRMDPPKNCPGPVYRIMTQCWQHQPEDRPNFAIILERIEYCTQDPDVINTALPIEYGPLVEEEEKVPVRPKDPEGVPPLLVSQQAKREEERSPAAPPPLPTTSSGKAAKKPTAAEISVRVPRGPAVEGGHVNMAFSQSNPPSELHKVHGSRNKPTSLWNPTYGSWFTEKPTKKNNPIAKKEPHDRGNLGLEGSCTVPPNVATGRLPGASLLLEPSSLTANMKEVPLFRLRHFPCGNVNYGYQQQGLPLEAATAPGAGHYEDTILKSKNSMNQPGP
pIC50: −log10 of the molar value.
Listing: pIC50 of selected compounds

Look over these answered cases.
{"columns": ["compound", "pIC50"],
 "data": [
  ["COc1cc2c(cc1Nc1ncc(Cl)c(Nc3ccccc3S(=O)(=O)C(C)C)n1)CC/C(=N\\NC(C)=O)C2(C)C", "7.00 to 8.00"],
  ["COc1cc2c(cc1Nc1ncc(Cl)c(Nc3ccccc3S(=O)(=O)C(C)C)n1)CCC(NC(=O)CO)C2(C)C (stereo not shown)", "> 8.00"],
  ["COc1cc2c(cc1Nc1ncc(Cl)c(Nc3ccccc3S(=O)(=O)C(C)C)n1)C(C)(C)C(O)CC2 (stereo not shown)", "7.00 to 8.00"],
  ["COc1cc2c(cc1Nc1ncc(Cl)c(Nc3ccccc3S(=O)(=O)C(C)C)n1)CCC(NC(=O)CN(C)C)C2(C)C (stereo not shown)", "> 8.00"],
  ["COc1cc2c(cc1Nc1ncc(Cl)c(Nc3ccccc3S(=O)(=O)C(C)C)n1)C(C)(C)/C(=N/N1CCOCC1)CC2", "< 7.00"]
]}

Request: Return pIC50 (reported value) for this compound: COc1cc2c(cc1Nc1ncc(Cl)c(Nc3ccccc3S(=O)(=O)C(C)C)n1)CC/C(=N\NC(=O)OC(C)(C)C)C2(C)C
Response: < 7.00

Request: Return pIC50 (reported value) for this compound: COc1cc2c(cc1Nc1ncc(Cl)c(Nc3ccccc3S(=O)(=O)C(C)C)n1)CCC(O)C2(C)C (stereo not shown)
Response: 7.00 to 8.00
